tested on: Staphylococcus aureus; assay: Antibacterial activity against Staphylococcus aureus MTCC 740 assessed as inhibition of bacterial growth measured after 48 hrs by broth microdilution method; assay type: functional
MIC values for the molecules below.
measured-property: MIC (µM)

>  <input-smiles>
Cc1ccc(C(C)C)c(OCc2cn(CCCCN3C(=O)C(=O)c4ccccc43)nn2)c1

>  <unit-of-measurement>
µM

>  <value>
15.6

$$$$
>  <input-smiles>
Cc1ccc(C(C)C)c(OCc2cn(CCCN3C(=O)C(=O)c4cc(F)ccc43)nn2)c1

>  <unit-of-measurement>
µM

>  <value>
7.8

$$$$
>  <input-smiles>
Cc1ccc(C(C)C)c(OCc2cn(CCCN3C(=O)C(=O)c4cc(C)ccc43)nn2)c1

>  <unit-of-measurement>
µM

>  <value>
3.9

$$$$
>  <input-smiles>
COc1ccc2c(c1)C(=O)C(=O)N2CCCn1cc(COc2cc(C)ccc2C(C)C)nn1

>  <unit-of-measurement>
µM

>  <value>
62.5

$$$$
